Reference source: ChEMBL document CHEMBL3124900

- TGT: Cytochrome P450 3A4 (Homo sapiens)
- Sequence (P08684 whole entry): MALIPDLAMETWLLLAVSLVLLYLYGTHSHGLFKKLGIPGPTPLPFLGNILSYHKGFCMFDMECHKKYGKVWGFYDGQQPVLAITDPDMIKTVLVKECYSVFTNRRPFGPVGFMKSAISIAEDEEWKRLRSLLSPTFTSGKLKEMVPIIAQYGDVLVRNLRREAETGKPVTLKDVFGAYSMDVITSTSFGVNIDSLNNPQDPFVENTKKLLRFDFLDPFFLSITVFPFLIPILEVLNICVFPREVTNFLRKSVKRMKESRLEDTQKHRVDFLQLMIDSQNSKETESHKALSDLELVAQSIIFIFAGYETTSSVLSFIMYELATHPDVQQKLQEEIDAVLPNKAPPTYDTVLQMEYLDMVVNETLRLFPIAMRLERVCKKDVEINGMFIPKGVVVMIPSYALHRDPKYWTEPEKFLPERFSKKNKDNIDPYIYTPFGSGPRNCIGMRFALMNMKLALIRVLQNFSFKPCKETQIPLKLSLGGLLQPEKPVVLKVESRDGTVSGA
- PROTOCOL TEXT: Inhibition of CYP3A4 (unknown origin)
- Assay type: ADME
EXPERIMENTAL READOUT: pIC50
Kindly note that pIC50 refers to -log10 of the concentration in mol/L and answer with the value alone.

Quick one: pIC50 of C=C[C@@H]1C[C@]1(NC(=O)[C@@H]1C[C@@H](Oc2nccc3cc(OC)ccc23)CN1C(=O)[C@@H](NC(=O)OC(C)(C)C)C(C)(C)C)C(=O)NS(=O)(=O)C1CC1 ?
5.70

###

Collected AUC at 4 h values appear next to each entry.
- PROTOCOL TEXT: AUC in intraduodenally dosed Sprague-Dawley rat plasma measured over 4 hrs by LC/MS/MS analysis
- Type: ADME, organism-based
- Design: time < 4 hr, route intraduodenal
- TEST CONDITIONS: Sprague-Dawley, plasma
Value expressed in µM·h; do not type the unit.

Examples with their reported AUC at 4 h follow.
[[record]]
chemical_structure = "C=C[C@@H]1C[C@]1(NC(=O)[C@@H]1C[C@@H](Oc2ncc(C)c3ccccc23)CN1C(=O)[C@@H](NC(=O)OC(C)(C)C)C(C)(C)C)C(=O)NS(=O)(=O)C1CC1"
experimental_readout = "AUC at 4 h"
unit_label = "µM·h"
measured = 0.2

[[record]]
chemical_structure = "C=C[C@@H]1C[C@]1(NC(=O)[C@@H]1C[C@@H](Oc2nc(-c3ccccc3)cc3cc(OC)ccc23)CN1C(=O)[C@@H](NC(=O)OC(C)(C)C)C(C)(C)C)C(=O)NS(=O)(=O)C1CC1"
experimental_readout = "AUC at 4 h"
unit_label = "µM·h"
measured = 1.11


// moving on: another record for AUC at 4 h
Quick one: AUC at 4 h of C=C[C@@H]1C[C@]1(NC(=O)[C@@H]1C[C@@H](Oc2nccc3c(OC)cccc23)CN1C(=O)[C@@H](NC(=O)OC(C)(C)C)C(C)(C)C)C(=O)NS(=O)(=O)C1CC1 ?
2.36

###

- PROTOCOL TEXT: Whole body plasma clearance in Sprague-Dawley rat at 5 mg/kg, iv by LC/MS/MS analysis
- Type: ADME, organism-based
- Design: dose 5 mg/kg, route intravenous
Kindly return condition met if reported clearance is no lower than 20 mL/min/kg; return condition not met if it is lower.

Example cases with answers are listed next.
[[record]]
chemical_structure = "C=C[C@@H]1C[C@]1(NC(=O)[C@@H]1C[C@@H](Oc2cc(-c3ccccc3)nc3cc(OC)ccc23)CN1C(=O)[C@@H](NC(=O)OC(C)(C)C)C(C)(C)C)C(=O)NS(=O)(=O)C1CC1"
label_class = "condition met"

[[record]]
chemical_structure = "C=C[C@@H]1C[C@]1(NC(=O)[C@@H]1C[C@@H](Oc2nccc3c(OC)cccc23)CN1C(=O)[C@@H](NC(=O)OC(C)(C)C)C(C)(C)C)C(=O)NS(=O)(=O)C1CC1"
label_class = "condition not met"

[[record]]
chemical_structure = "C=C[C@@H]1C[C@]1(NC(=O)[C@@H]1C[C@@H](Oc2nccc3cc(OC)ccc23)CN1C(=O)[C@@H](NC(=O)O[C@H]1CCOC1)C(C)(C)C)C(=O)NS(=O)(=O)C1CC1"
label_class = "condition met"

[[record]]
chemical_structure = "C=C[C@@H]1C[C@]1(NC(=O)[C@@H]1C[C@@H](Oc2ncc(OC)c3ccccc23)CN1C(=O)[C@@H](NC(=O)OC(C)(C)C)C(C)(C)C)C(=O)NS(=O)(=O)C1CC1"
label_class = "condition met"

[[record]]
chemical_structure = "C=C[C@@H]1C[C@]1(NC(=O)[C@@H]1C[C@@H](Oc2nccc3cc(OC)ccc23)CN1C(=O)[C@@H](NC(=O)OC(C)(C)C)C(C)C)C(=O)NS(=O)(=O)C1CC1"
label_class = "condition not met"


Now let's try a different one.
Does CC[C@@H]1C[C@]1(NC(=O)[C@@H]1C[C@@H](Oc2nccc3cc(OC)ccc23)CN1C(=O)[C@@H](NC(=O)OC(C)(C)C)C(C)(C)C)C(=O)NS(=O)(=O)C1CC1 have a reported clearance of at least 20 mL/min/kg?
condition not met

###

- PROTOCOL TEXT: Oral bioavailability in cynomolgus monkey at 3 mg/kg administered via gavage by LC/MS/MS analysis
- Format: ADME, organism-based, Macaca fascicularis
- TEST CONDITIONS: in vivo
EXPERIMENTAL READOUT: bioavailability

Quick one: bioavailability of C=C[C@@H]1C[C@]1(NC(=O)[C@@H]1C[C@@H](Oc2nccc3cc(OC)ccc23)CN1C(=O)[C@@H](NC(=O)OC(C)(C)C)C(C)(C)C)C(=O)NS(=O)(=O)C1CC1 ?
< 1%

###

- PROTOCOL TEXT: Half life in dog liver microsomes at 3 uM by LC/MS/MS analysis
- Type: ADME, Canis lupus familiaris
EXPERIMENTAL READOUT: half-life at 3 µM

Quick one: half-life at 3 µM of C=C[C@@H]1C[C@]1(NC(=O)[C@@H]1C[C@@H](Oc2cc(-c3ccccc3)nc3cc(OC)ccc23)CN1C(=O)[C@@H](NC(=O)OC(C)(C)C)C(C)(C)C)C(=O)NS(=O)(=O)C1CC1 ?
2.83 h

###

- PROTOCOL TEXT: Drug uptake in iv dosed Sprague-Dawley rat liver measured after 24 hrs by LC/MS/MS analysis
- Assay type: ADME, organism-based
- TEST CONDITIONS: read-out: Drug uptake
EXPERIMENTAL READOUT: concentration at 24 h (µM)
Value expressed in µM; do not type the unit.

Quick one: concentration at 24 h of C=C[C@@H]1C[C@]1(NC(=O)[C@@H]1C[C@@H](Oc2ncc(OC)c3ccccc23)CN1C(=O)[C@@H](NC(=O)OC(C)(C)C)C(C)(C)C)C(=O)NS(=O)(=O)C1CC1 ?
8

###

- PROTOCOL TEXT: AUC in Beagle dog at 3 mg/kg by LC/MS/MS analysis
- Format: ADME, organism-based, Canis lupus familiaris
- Design: dose 3 mg/kg
- TEST CONDITIONS: plasma
EXPERIMENTAL READOUT: AUC (µM·h)
Value expressed in µM·h; do not type the unit.

Quick one: AUC of C=C[C@@H]1C[C@]1(NC(=O)[C@@H]1C[C@@H](Oc2cc(-c3ccccc3)nc3cc(OC)ccc23)CN1C(=O)[C@@H](NC(=O)OC(C)(C)C)C(C)(C)C)C(=O)NS(=O)(=O)C1CC1 ?
2

###

- PROTOCOL TEXT: Oral bioavailability in Beagle dog by LC/MS/MS analysis
- Type: ADME, organism-based, Canis lupus familiaris
- TEST CONDITIONS: in vivo
EXPERIMENTAL READOUT: bioavailability (%)
Value expressed in %; do not type the unit.

Quick one: bioavailability of C=C[C@@H]1C[C@]1(NC(=O)[C@@H]1C[C@@H](Oc2nccc3cc(OC)ccc23)CN1C(=O)[C@@H](NC(=O)OC(C)(C)C)C(C)(C)C)C(=O)NS(=O)(=O)C1CC1 ?
51

###

- PROTOCOL TEXT: Whole body plasma clearance in Beagle dog at 3 mg/kg, iv by LC/MS/MS analysis
- Type: ADME, organism-based, Canis lupus familiaris
- Parameters: dose 3 mg/kg, route intravenous
EXPERIMENTAL READOUT: clearance (mL/min/kg)
Value expressed in mL/min/kg; do not type the unit.

Quick one: clearance of C=C[C@@H]1C[C@]1(NC(=O)[C@@H]1C[C@@H](Oc2cc(-c3ccccc3)nc3cc(OC)ccc23)CN1C(=O)[C@@H](NC(=O)OC(C)(C)C)C(C)(C)C)C(=O)NS(=O)(=O)C1CC1 ?
16

###

- PROTOCOL TEXT: Whole body plasma clearance in Sprague-Dawley rat at 5 mg/kg, iv by LC/MS/MS analysis
- Assay type: ADME, organism-based
- Parameters: dose 5 mg/kg, route intravenous
EXPERIMENTAL READOUT: clearance
Your answer should be a number followed by the unit of measure.

Examples with their reported clearance follow.
[[record]]
chemical_structure = "C=C[C@@H]1C[C@]1(NC(=O)[C@@H]1C[C@@H](Oc2ncc(OC)c3cc(OC)ccc23)CN1C(=O)[C@@H](NC(=O)OC(C)(C)C)C(C)(C)C)C(=O)NS(=O)(=O)C1CC1"
experimental_readout = "clearance"
measured = "27 mL/min/kg"

[[record]]
chemical_structure = "C=C[C@@H]1C[C@]1(NC(=O)[C@@H]1C[C@@H](Oc2nccc3c(Cl)cccc23)CN1C(=O)[C@@H](NC(=O)OC(C)(C)C)C(C)(C)C)C(=O)NS(=O)(=O)C1CC1"
experimental_readout = "clearance"
measured = "7 mL/min/kg"


// moving on: another record for clearance
Quick one: clearance of C=C[C@@H]1C[C@]1(NC(=O)[C@@H]1C[C@@H](Oc2nccc3ccccc23)CN1C(=O)[C@@H](NC(=O)OC(C)(C)C)C(C)(C)C)C(=O)NS(=O)(=O)C1CC1 ?
19 mL/min/kg
